All figures here come from patent US20230219978A1.

# study.target: BTK (Homo sapiens, UniProt Q06187)
# Construct: purchased Carna 08-180
# Sequence (Q06187 whole entry): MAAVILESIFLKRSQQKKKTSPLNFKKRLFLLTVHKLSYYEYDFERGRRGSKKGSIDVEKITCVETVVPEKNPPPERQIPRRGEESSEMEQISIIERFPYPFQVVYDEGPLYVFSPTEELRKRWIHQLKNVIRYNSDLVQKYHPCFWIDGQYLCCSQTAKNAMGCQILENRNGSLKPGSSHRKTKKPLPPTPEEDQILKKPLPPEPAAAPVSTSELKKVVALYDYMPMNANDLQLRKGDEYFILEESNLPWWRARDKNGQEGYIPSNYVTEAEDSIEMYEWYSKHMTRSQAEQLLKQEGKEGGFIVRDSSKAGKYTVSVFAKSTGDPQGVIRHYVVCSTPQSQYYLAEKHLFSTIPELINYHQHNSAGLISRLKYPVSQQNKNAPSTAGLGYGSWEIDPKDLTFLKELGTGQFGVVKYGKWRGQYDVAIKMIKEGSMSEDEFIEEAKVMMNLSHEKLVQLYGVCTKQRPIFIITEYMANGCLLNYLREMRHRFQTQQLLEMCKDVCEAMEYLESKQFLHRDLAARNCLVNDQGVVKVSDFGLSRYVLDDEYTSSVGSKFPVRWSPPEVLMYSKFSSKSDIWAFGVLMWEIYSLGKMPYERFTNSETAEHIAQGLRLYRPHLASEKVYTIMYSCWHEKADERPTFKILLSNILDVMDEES
# assay: In vitro kinase activity assay (mobility shift assay), BTK
# Format: biochemical
# test.conditions: ATP 71 μM, reaction time 30 min
# Experimental: The IC50 (half inhibitory concentration) values of the compounds were used as an indicator to evaluate the inhibitory effect of the compound on RET wild-type, RET mutant, TRKa, SRC, BTK and/or mutated BTK kinase. Using the method of Mobility shift assay, the compounds were tested for inhibitory activity against the following kinases: RET wild type, RET mutant, TRKa, SRC, BTK and/or mutated BTK. […]
pIC50: −log10 of the molar value.
# pIC50 per record follows

Below are worked cases with known answers.
{"columns": ["compound", "measure", "recorded.value"],
 "data": [
  ["C[C@H]1CNC(=O)c2cnn3cc(-c4ccc(Oc5ccccc5)cc4)c(nc23)NCc2cc(F)cnc2O1", "pIC50", "< 5.00"],
  ["CC(=O)Nc1ccc(-c2cn3ncc4c3nc2NCc2cc(F)cnc2O[C@@H](C)CNC4=O)cc1", "pIC50", "< 5.00"],
  ["C[C@H]1CNC(=O)c2c(C#N)nn3c(N)c(-c4ccccc4)c(nc23)NCc2cc(F)cnc2O1", "pIC50", "< 6.00"],
  ["CNc1c(-c2ccccc2)c2nc3c(cnn13)C(=O)NC[C@H](C)Oc1ncc(F)cc1CN2", "pIC50", "< 6.00"]
]}

Could you now look at the following compound, please?
Q: Request the reported pIC50 associated with COC(=O)NC1CC=C(c2cn3ncc4c3nc2NCc2cc(F)cnc2O[C@@H](C)CNC4=O)CC1 (some centres unmarked)
Ans: < 5.00

----------
# study.target: RET V804M (Homo sapiens, UniProt P07949, V804M)
# Sequence (P07949 29-1114 V804M): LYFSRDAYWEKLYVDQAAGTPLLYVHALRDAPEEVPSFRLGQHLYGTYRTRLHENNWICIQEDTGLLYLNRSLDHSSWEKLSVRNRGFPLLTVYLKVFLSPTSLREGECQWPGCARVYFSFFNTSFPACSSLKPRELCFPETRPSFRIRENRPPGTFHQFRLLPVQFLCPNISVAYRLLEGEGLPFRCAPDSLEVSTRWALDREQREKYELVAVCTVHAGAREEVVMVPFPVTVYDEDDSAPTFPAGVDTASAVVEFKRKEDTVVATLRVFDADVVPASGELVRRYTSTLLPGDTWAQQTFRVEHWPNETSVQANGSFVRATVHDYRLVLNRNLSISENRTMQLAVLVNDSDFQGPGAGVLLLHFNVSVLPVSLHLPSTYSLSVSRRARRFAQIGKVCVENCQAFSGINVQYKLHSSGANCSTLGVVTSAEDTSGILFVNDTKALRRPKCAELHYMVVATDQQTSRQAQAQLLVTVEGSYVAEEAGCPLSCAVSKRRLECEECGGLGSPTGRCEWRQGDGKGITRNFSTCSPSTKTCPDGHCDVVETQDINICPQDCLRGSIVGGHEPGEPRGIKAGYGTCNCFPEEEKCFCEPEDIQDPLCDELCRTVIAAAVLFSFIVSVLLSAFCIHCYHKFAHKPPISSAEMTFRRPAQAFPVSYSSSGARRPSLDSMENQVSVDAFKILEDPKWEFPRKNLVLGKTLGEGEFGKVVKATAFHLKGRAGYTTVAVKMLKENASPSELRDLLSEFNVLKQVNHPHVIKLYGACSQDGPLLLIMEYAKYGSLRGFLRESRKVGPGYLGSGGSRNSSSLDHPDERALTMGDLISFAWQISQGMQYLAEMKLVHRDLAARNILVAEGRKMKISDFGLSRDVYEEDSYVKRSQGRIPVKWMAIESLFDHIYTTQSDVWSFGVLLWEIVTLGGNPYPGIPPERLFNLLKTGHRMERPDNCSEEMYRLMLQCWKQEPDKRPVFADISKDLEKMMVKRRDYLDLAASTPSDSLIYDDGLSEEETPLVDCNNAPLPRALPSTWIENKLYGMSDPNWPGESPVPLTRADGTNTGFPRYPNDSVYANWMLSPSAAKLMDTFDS
# assay: In vitro kinase activity assay (mobility shift assay), RET V804M
# test.conditions: ATP 5.4 μM, reaction time 60 min
measure: IC50

Below are worked cases with known answers.
{"columns": ["molecule", "study.target", "IC50"],
 "data": [
  ["Nc1c(-c2ccccc2)c2nc3c(cnn13)C(=O)N1CCCC1COc1ncc(F)cc1CN2 (stereo not shown)", "RET V804M (Homo sapiens, UniProt P07949, V804M)", "> 1 µM"],
  ["CNC(=O)c1ccc(-c2cn3ncc4c3nc2NCc2cc(F)cnc2O[C@@H](C)CNC4=O)cc1", "RET V804M (Homo sapiens, UniProt P07949, V804M)", "> 10 µM"],
  ["C[C@H]1CNC(=O)c2cnn3cc(C4=CCCC4)c(nc23)NCc2cc(F)cnc2O1", "RET V804M (Homo sapiens, UniProt P07949, V804M)", "> 10 µM"]
]}

Could you now look at the following molecule, please?
Q: Request the reported IC50 associated with `C[C@H]1CNC(=O)c2c(Br)nn3c(N)c(-c4ccccc4)c(nc23)NCc2cc(F)cnc2O1`
Ans: > 1 µM

----------
# pIC50 per record follows
# study.target: TRKa (Homo sapiens)
# Sequence (P04629 33-796): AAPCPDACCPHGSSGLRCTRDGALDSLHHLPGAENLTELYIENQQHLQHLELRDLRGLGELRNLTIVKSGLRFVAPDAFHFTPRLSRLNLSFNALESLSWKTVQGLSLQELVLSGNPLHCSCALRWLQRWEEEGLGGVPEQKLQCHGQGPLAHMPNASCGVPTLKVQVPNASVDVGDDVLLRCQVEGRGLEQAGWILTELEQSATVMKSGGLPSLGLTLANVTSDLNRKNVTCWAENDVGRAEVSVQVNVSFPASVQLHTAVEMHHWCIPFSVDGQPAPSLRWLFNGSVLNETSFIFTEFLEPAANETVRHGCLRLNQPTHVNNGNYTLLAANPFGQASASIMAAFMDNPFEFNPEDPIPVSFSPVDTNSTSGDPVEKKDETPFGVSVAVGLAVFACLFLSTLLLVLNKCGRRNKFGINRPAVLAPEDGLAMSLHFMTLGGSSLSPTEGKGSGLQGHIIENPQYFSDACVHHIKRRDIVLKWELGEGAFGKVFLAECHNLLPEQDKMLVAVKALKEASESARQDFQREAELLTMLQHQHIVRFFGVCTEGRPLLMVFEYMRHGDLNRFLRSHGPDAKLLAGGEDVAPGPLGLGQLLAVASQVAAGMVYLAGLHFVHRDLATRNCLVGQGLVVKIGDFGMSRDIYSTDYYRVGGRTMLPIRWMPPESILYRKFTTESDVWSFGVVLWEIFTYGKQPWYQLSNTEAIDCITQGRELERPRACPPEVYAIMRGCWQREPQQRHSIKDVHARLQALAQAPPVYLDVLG
pIC50: −log10 of the molar value.

{"columns": ["smiles.structure", "measure", "recorded.value"],
 "data": [
  ["C[C@H]1CNC(=O)c2cnn3cc(-c4ccccc4)c(nc23)N[C@H](C)c2cc(F)cnc2O1", "pIC50", "< 5.00"]
]}

Q: Request the reported pIC50 associated with `C[C@H]1CNC(=O)c2cnn3cc(-c4ccc(Cl)cc4)c(nc23)NCc2cc(F)cnc2O1`
Ans: < 5.00

Q: Request the reported pIC50 associated with `C[C@H]1CNC(=O)c2cnn3cc(Nc4ccccc4)c(nc23)NCc2cc(F)cnc2O1`
Ans: < 5.00

----------
# study.target: RET V804M (Homo sapiens, UniProt P07949, V804M)
# assay: In vitro kinase activity assay (mobility shift assay), RET V804M
# test.conditions: ATP 5.4 μM, reaction time 60 min
pIC50: −log10 of the molar value.
# pIC50 per record follows

{"columns": ["smiles.structure", "study.target", "pIC50"],
 "data": [
  ["C[C@H]1CNC(=O)c2cnn3cc(-c4ccc(Nc5ncco5)cc4)c(nc23)NCc2cc(F)cnc2O1", "RET V804M (Homo sapiens, UniProt P07949, V804M)", "< 6.00"],
  ["C[C@H]1CNC(=O)c2c(C#N)nn3c(N)c(-c4ccccc4)c(nc23)NCc2cc(F)cnc2O1", "RET V804M (Homo sapiens, UniProt P07949, V804M)", "< 6.00"],
  ["C[C@H]1CNC(=O)c2cnn3cc(-c4ccccc4)c(nc23)NCc2cc(Cl)cnc2O1", "RET V804M (Homo sapiens, UniProt P07949, V804M)", "< 6.00"]
]}

Could you now look at the following compound, please?
Q: Request the reported pIC50 associated with `C[C@H]1CNC(=O)c2cnn3cc(-c4ccc(Oc5ccccc5)cc4)c(nc23)NCc2cc(F)cnc2O1`
Ans: < 5.00

----------
RET wt (Homo sapiens) pIC50 data
Sequence (P07949 29-1114): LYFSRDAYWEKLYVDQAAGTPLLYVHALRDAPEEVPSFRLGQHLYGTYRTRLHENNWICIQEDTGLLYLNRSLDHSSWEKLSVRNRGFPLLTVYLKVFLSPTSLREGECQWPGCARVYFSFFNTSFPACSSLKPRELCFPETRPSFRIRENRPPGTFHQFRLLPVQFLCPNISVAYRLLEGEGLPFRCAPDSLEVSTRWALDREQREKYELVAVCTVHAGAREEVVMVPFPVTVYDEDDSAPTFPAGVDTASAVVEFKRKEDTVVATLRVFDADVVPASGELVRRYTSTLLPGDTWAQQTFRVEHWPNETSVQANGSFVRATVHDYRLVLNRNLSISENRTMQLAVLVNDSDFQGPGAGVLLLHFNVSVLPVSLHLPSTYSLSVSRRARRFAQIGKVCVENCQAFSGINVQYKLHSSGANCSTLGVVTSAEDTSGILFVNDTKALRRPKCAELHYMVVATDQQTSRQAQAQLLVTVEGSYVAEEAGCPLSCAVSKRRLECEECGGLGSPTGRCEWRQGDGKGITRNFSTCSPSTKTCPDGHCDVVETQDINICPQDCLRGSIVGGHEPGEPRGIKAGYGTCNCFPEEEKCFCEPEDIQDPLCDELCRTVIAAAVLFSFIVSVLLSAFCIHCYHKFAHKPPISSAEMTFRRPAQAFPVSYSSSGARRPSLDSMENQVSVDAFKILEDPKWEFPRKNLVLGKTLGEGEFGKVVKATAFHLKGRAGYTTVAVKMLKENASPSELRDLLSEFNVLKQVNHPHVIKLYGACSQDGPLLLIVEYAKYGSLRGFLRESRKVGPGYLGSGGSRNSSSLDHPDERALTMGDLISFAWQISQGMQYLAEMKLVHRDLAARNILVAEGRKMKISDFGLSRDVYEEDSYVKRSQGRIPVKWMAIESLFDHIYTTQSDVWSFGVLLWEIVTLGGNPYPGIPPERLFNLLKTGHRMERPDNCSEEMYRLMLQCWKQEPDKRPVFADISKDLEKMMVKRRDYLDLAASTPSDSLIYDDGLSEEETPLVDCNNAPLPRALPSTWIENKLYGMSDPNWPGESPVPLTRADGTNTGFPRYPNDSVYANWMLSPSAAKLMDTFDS
pIC50: −log10 of the molar value.

Below are worked cases with known answers.
{"columns": ["compound", "study.target", "recorded.value"],
 "data": [
  ["C[C@H]1CNC(=O)c2cnn3cc(-c4ccc(Nc5ncco5)cc4)c(nc23)NCc2cc(F)cnc2O1 [Compound 42]", "RET wt (Homo sapiens)", "< 6.00"],
  ["COC(=O)Nc1ccc(-c2c3nc4c(cnn4c2N)C(=O)NC[C@H](C)Oc2ncc(F)cc2CN3)cc1 [Compound 49]", "RET wt (Homo sapiens)", "> 9.29"],
  ["C[C@H]1CNC(=O)c2c(C#N)nn3c(N)c(-c4ccccc4)c(nc23)NCc2cc(F)cnc2O1 [Example 77]", "RET wt (Homo sapiens)", "< 6.00"]
]}

Q: Can you look up pIC50 on RET wt (Homo sapiens) for CC(=O)Nc1ccc(-c2cn3ncc4c3nc2NCc2cc(F)cnc2O[C@@H](C)CNC4=O)cc1 [Compound 18] ?
Ans: < 5.00
